Compiled record: IC50 values for Cytochrome P450 3A5 (Homo sapiens, UniProt P20815) across several sources.

{"Compound": "NC(=O)C[S+]([O-])Cc1ccccc1-c1ccc(Cl)cc1 (single isomer, unassigned; (-))", "IC50": "139 µM"}
{"Compound": "CCn1c([C@@H](C)NS(=O)(=O)c2cccnc2)nc2ccc(C(F)(F)F)cc21", "IC50": "0.83 µM"}
{"Compound": "NC(=O)C[S+]([O-])Cc1ccccc1Oc1ccc(Cl)c(Cl)c1 (single isomer, unassigned; (+))", "IC50": "32 µM"}
{"Compound": "Cc1ccc(Oc2ccc(-c3nnn(CCN)n3)cc2)cc1", "IC50": "> 20 µM"}
{"Compound": "C[C@@H](N)Cn1nnc(-c2ccc(Oc3ccc(Cl)cc3)cc2)n1", "IC50": "> 20 µM"}
{"Compound": "NC(=O)[C@@H]1C[C@H](F)CN1Cc1ccc(OCc2cccc(F)c2)cc1", "IC50": "> 29 µM"}
{"Compound": "NCCCn1nnc(-c2ccc(Oc3ccc(Cl)cc3)cc2)n1", "IC50": "> 20 µM"}
